Study system: MC4-R (Homo sapiens)
Sequence (P32245 whole entry): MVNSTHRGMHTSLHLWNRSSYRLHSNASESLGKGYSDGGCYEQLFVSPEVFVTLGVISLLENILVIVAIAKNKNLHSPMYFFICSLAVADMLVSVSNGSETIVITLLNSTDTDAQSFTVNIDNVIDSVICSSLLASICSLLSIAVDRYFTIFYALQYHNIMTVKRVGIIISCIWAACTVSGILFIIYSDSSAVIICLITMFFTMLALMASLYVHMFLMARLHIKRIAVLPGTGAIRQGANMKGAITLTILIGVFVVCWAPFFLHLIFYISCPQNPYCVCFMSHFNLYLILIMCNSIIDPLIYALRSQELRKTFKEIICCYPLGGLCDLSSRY
Assay protocol: cAMP functional activity assay in HEK-293 cells, normal system
Format: cell-based
Parameters: expressed in transfected cells; host or cells: HEK-293
Experimental parameters: normal receptor density system; NDP-α-MSH = 1.0
Non-standard residues stand in square brackets, D forms with d. Residues, ends and D or L forms follow the SMILES beside them. *: point of attachment. dPhe(4-Cl) = N[C@H](Cc1ccc(Cl)cc1)C(=O)O; Ahp = NCCCCCCC(=O)O; Bn = c1ccc(C*)cc1
// label = Met if intrinsic activity at MC4-R in a normal system is not less than 0.4, otherwise Not met

Check out these entries, answers already filled in.
Compound | Study system | Category
Cc1ccc(CCN2C[C@H](CCCNC(=N)N)N(C(=O)[C@H](N)Cc3ccc4ccccc4c3)C[C@H]2C)cc1 [Example 5] | MC4-R (Homo sapiens) | Met
C[C@@H]1CN(C(=O)[C@H](N)Cc2ccc(Cl)cc2)[C@@H](CCCNC(=N)N)CN1CCc1ccc2ccccc2c1 [Example 28] | MC4-R (Homo sapiens) | Met
N=C(N)NCCC[C@H](NC(=O)[C@@H](Cc1ccc(Cl)cc1)NC(=O)[C@H](COCc1ccccc1)NC(=O)CCCCCCN)C(=O)N[C@@H](Cc1c[nH]c2ccccc12)C(=O)N[C@@H](CC(=O)O)C(N)=O [Example 13] (H-[Ahp]S(Bn)[dPhe(4-Cl)]RWD-NH2) | MC4-R (Homo sapiens) | Met

Data request: Dear colleague, could you confirm whether Cc1[nH]c2ccccc2c1CCN1C[C@H](CCCNC(=N)N)N(C(=O)[C@H](N)Cc2ccc3ccccc3c2)C[C@H]1C [Example 8] has intrinsic activity at MC4-R in a normal system at or above 0.4?
Data returned: Met

Data request: Textbook exercise: given the entry N=C(N)NCCC[C@H](NC(=O)[C@@H](Cc1ccc(Cl)cc1)NC(=O)[C@H](COCc1ccccc1)NC(=O)CCCCCCN)C(=O)N[C@@H](Cc1c[nH]c2ccccc12)C(N)=O [Example 1] (H-[Ahp]S(Bn)[dPhe(4-Cl)]RW-NH2) , state whether its intrinsic activity at MC4-R in a normal system is greater than or equal to 0.4.
Data returned: Not met

Data request: In plain terms: is recorded intrinsic activity at MC4-R in a normal system at least 0.4 for C[C@@H]1CN(C(=O)[C@H](N)Cc2ccc3ccccc3c2)[C@@H](CCCNC(=N)N)CN1C(=O)Cc1c[nH]c2ccccc12 [Example 6] ?
Data returned: Not met

Data request: Does the compound CC(=O)N[C@H](Cc1ccc(Cl)cc1C)C(=O)N1C[C@@H](C)N(C(=O)Cc2ccc3ccccc3c2)C[C@@H]1CCCNC(=N)N [Example 31] have recorded intrinsic activity at MC4-R in a normal system that is 0.4 or more?
Data returned: Met

Data request: Item N=C(N)NCCC[C@H]1C(=O)N(CCc2c[nH]c3ccccc23)CCN1C(=O)[C@H](N)Cc1ccc(Cl)cc1Cl [Example 2] with intrinsic activity at MC4-R in a normal system of 0.4 or above?
Data returned: Not met

###

Study system: MC3-R (Homo sapiens)
Sequence (P41968 whole entry): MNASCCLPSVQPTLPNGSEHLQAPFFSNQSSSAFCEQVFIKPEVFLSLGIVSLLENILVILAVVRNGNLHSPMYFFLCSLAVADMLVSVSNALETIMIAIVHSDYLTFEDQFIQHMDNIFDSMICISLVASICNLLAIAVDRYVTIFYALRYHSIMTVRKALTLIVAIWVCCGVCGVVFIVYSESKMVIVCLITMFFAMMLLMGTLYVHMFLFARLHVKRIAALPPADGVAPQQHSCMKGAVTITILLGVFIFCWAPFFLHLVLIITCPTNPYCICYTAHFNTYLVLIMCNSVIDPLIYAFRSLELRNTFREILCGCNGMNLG
Assay protocol: Competitive inhibition assay using [I^125]-NDP-α-MSH, hMC3-R membranes
Type: binding
Design: expressed in transfected cells
Experimental parameters: 1 μM test compound; read-out: Inhibition at 1 μM (NDP-α-MSH) In Normal System, MC3-R
Positions of bridges follow the written chain, without caps; N, C: chain ends. Non-standard residues stand in square brackets, D forms with d. Residues, ends and D or L forms follow the SMILES beside them. 1Nal = N[C@@H](Cc1cccc2ccccc12)C(=O)O; Nle = CCCC[C@H](N)C(=O)O
Test readout: inhibition at 1 µM (%)
Quick reminder: number only, in %, skip the unit.

Sample records with inhibition at 1 µM:
Compound | Study system | Quantity unit | inhibition at 1 µM
N=C(N)NCCC[C@H]1C(=O)N2C(CC[C@@H]2COc2ccc3ccccc3c2)N1C(=O)[C@@H](Cc1ccc(Cl)cc1Cl)NC(=O)[C@@H]1Cc2ccccc2CN1 (stereo partly drawn) [Example 22] | MC3-R (Homo sapiens) | % | 88
CCCC[C@H](NC(C)=O)C(=O)N[C@H]1CC(=O)NCCCC[C@@H](C(=O)NCC)NC(=O)[C@H](Cc2cccc3ccccc23)NC(=O)[C@H](CCCNC(=N)N)NC(=O)[C@@H](Cc2ccccc2)NC(=O)[C@H](Cc2c[nH]c3ccccc23)NC1=O [Example 38] (Ac-[Nle]DW[dF]R[1Nal]K-NHEt; lactam 2-7) | MC3-R (Homo sapiens) | % | 92

Consider the additional compound presented here.
Data request: What does the data say about its inhibition at 1 µM? Entry: C[C@@H]1CN(C(=O)[C@H](N)Cc2ccc(Cl)cc2Cl)[C@@H](CCCNC(=N)N)CN1CCc1ccc2ccccc2c1 [Example 11]
Data returned: 72
